Below, each of the compounds is paired with its reported TGI value.
Tested on: MOLT-4 leukemia
ASSAY_PROCEDURE: NCI tumour cell line growth inhibition, 48 h
Where a SMILES comes first, the peptide text is derived from it. Bridges are numbered along the chain shown (N, C = ends). [ ]: non-standard residue; d: D form. The star is where a group is joined. ξ: configuration not given here. ξDab(CH2SO3H) = NC(CCNCS(=O)(=O)O)C(=O)O; Heptanoyl(6-Me) = CC(C)CCCCC(=O)*; Dab = NCC[CH](N)C(=O)O

Worked examples, 4 compounds total:
COc1ccc2nc3c([N+](=O)[O-])ccc(NCCCN(C)C)c3c(NCCCN(C)C)c2c1; 1.26 µM
CCOC(=O)c1cc2c3c(c(C(C)=O)c(O)c2[nH]1)N(C(C)=O)CC3; > 100 µM
CCCCCCCCCCCCSC1=C(Cl)C(=O)C(OC)=C(OC)C1=O; 18.6 µM
CCC(C)C1NC(=O)C(CCNCS(=O)(=O)O)NC(=O)C(NC(=O)C(CCNCS(=O)(=O)O)NC(=O)C(NC(=O)C(CCNCS(=O)(=O)O)NC(=O)CCCCC(C)C)C(C)O)CCNC(=O)C(C(C)O)NC(=O)C(CCNCS(=O)(=O)O)NC(=O)C(CCNCS(=O)(=O)O)NC(=O)C(C(C)CC)NC1=O (stereo unspecified) ({Heptanoyl(6-Me)}-[ξDab(CH2SO3H)]T[ξDab(CH2SO3H)][Dab][ξDab(CH2SO3H)]II[ξDab(CH2SO3H)][ξDab(CH2SO3H)]T; lactam 4-C; configuration not given here); > 25 µM

Summary: CCOP12(OCC)NC(=O)OC1(C(F)(F)F)c1ccccc1O2 (stereo unspecified) , MOLT-4 leukemia, TGI = > 100 µM

Summary: `COC(=O)C(C)(C)[C@@H]1OC(=O)N(S(=O)(=O)c2c(C)cc(C)cc2C)[C@H]1C(C)C` , MOLT-4 leukemia, TGI = > 100 µM
